- Test system: Streptococcus pneumoniae (51422) (multiple drug resistant)
- experimental details: MIC, NCCLS broth microdilution
- Assay type: cell-based
readout kind: MIC (µg/mL)
Supply the numeric figure in µg/mL, leaving out any unit text.

Use these answered entries as a reference point.
# get_value(readout='MIC', item= CN(C)CCCNC(=O)c1cc(NC(=O)c2cc(NC(=O)c3cc(NC(=O)c4nsc(NCCCN)c4Cl)cn3C)cn2C)cn1C [V-b] )
1

# get_value(readout='MIC', item= CN(C)CCCNC(=O)c1cc(NC(=O)c2cc(NC(=O)c3cc(NC(=O)c4nsc(NCCCCN)c4Cl)cn3C)cn2C)cn1C [V-a] )
8

# get_value(readout='MIC', item= CN(C)CCCNC(=O)c1cc(NC(=O)c2cc(NC(=O)c3cc(NC(=O)c4nsc(NCCN)c4Cl)cn3C)cn2C)cn1C [V-c] )
4

Now take the following molecule into account.
# get_value(readout='MIC', item= CN(C)CCCNC(=O)c1cc(NC(=O)c2cc(NC(=O)c3cc(NC(=O)c4nsc(NCCCN(C)C)c4Cl)cn3C)cn2C)cn1C [V-q] )
4

----------
- System: ATTACT
- experimental details: DNase I footprint titration, ATTACT site
- Format: binding
- test settings: equilibrium association constant Ka; pH 7.0, 22° C.
Entries and their Binding Constant, sequence ATTACT
Supply the numeric figure in M⁻¹, leaving out any unit text.

Provide the documented Binding Constant, sequence ATTACT with ATTACT as the system for CN(C)CCCNC(=O)CCNC(=O)c1cc(NC(=O)c2cc(NC(=O)c3cc(NC(=O)c4nsc(Cl)c4Cl)cn3C)cn2C)cn1C
5e+08

Provide the documented Binding Constant, sequence ATTACT with ATTACT as the system for CN(C)CCCNC(=O)CCNC(=O)c1cc(NC(=O)c2cc(NC(=O)c3cc(NC(=O)c4cc(NC(=O)c5nsc(Cl)c5Cl)cn4C)cn3C)cn2C)cn1C
2e+08

Provide the documented Binding Constant, sequence ATTACT with ATTACT as the system for CN(C)CCCNC(=O)c1cc(NC(=O)c2cc(NC(=O)c3cc(NC(=O)c4nsc(NCCCN)c4Cl)cn3C)cn2C)cn1C
1e+08

----------
- Test system: Enterococcus faecalis (29212)
- experimental details: MIC, NCCLS broth microdilution
- Assay type: cell-based
- test settings: Enterococcus faecalis (29212)
Entries and their MIC

Use these answered entries as a reference point.
# get_value(readout='MIC', item= CCN(CC)CCNC(=O)CCNC(=O)c1cc(NC(=O)c2cc(NC(=O)c3nsc(NCCN(CC)CC)c3Cl)cn2C)cn1C )
16 µg/mL

# get_value(readout='MIC', item= CN(C)CCCNC(=O)c1cc(NC(=O)c2cc(NC(=O)c3cc(NC(=O)c4nsc(NCCN)c4Cl)cn3C)cn2C)cn1C )
4 µg/mL

# get_value(readout='MIC', item= CN(C)CCCNC(=O)c1cc(NC(=O)c2cc(NC(=O)c3cc(NC(=O)c4nsc(NCCCN)c4Cl)cn3C)cn2C)cn1C )
1 µg/mL

# get_value(readout='MIC', item= Cn1cc(NC(=O)c2cc(NC(=O)c3cc(NC=O)cn3C)cn2C)cc1C(=O)NCCC(=N)N [Distamycin, distamycin, reference compound] )
16 to 32 µg/mL

# get_value(readout='MIC', item= CN(C)CCCNC(=O)c1cc(NC(=O)c2cc(NC(=O)c3cc(NC(=O)c4nsc(NCCCCN)c4Cl)cn3C)cn2C)cn1C )
1 µg/mL

New cases:
# get_value(readout='MIC', item= CN(C)CCCNC(=O)c1cc(NC(=O)c2cc(NC(=O)c3cc(NC(=O)c4nsc(NCCCN(C)C)c4Cl)cn3C)cn2C)cn1C )
1 µg/mL
